Source of measurements: paper doi:10.1101/714097

target: the molecule itself; test: cryo-EM structure
This listing pairs proteins with measured stoichiometry N.
Metric: stoichiometry N

* PrgK (natural protein) CKDKDLLKGLDQEQANEVIAVLQMHNIEANKIDSGKLGYSITVAEPDFTAAVYWIKTYQLPPRPRVEIAQMFPADSLVSSPRAEKARLYSAIEQRLEQSLQTMEGVLSARVHISYDIDAGENGRPPKPVHLSALAVYERGSPLAHQISDIKRFLKNSFADVDYDNISVVLSERSDAQLQAPGTPVKRNSFATSWIVLIILLSVMSAGFGVWYYKNHYARNKKGITADDKAKSSNE | 24
* SpaQ (natural protein) MDDLVFAGNKALYLVLILSGWPTIVATIIGLLVGLFQTVTQLQEQTLPFGIKLLGVCLCLFLLSGWYGEVLLSYGRQVIFLALAKG | 4
* PrgH (natural protein) METSKEKTITSPGPYIVRLLNSSLNGCEFPLLTGRTLFVVGQSDALTASGQLPDIPADSFFIPLDHGGVNFEIQVDTDATEIILHELKEGNSESRSVQLNTPIQVGELLILIRPESEPWVPEQPEKLETSAKKNEPRFKNGIVAALAGFFILGIGTVGTLWILNSPQRQAAELDSLLGQEKERFQVLPGRDKMLYVAAQNERDTLWARQVLARGDYDKNARVINENEENKRISIWLDTYYPQLAYYRIHFDEPRKPVFWLSRQRNTMSKKELEVLSQKLRALMPYADSVNITLMDDVTAAGQAEAGLKQQALPYSRRNHKGGVTFVIQGALDDVEILRARQFVDSYYRTWGGRYVQFAIELKDDWLKGRSFQYGAEGYIKMSPGHWYFPSPL | 24
